COMPOUND	melting point
O=C(CC1CCCOC1=O)c1ccccc1 (stereo not drawn)	93 to 94 °C
NC(=O)c1ccc(NCc2cccc([N+](=O)[O-])c2)cc1	178 to 180 °C
C[C@@H](Cn1ncc2ccc(O)c(Br)c21)O[Si](C)(C)C(C)(C)C	103 to 105 °C

* * *

Attribute: melting point
MEASURED ENDPOINT: melting point

COMPOUND	MEASURED ENDPOINT	MEAS VALUE
CC(C)=CCCC(C)=CCOc1ccc(C(=O)NCCSc2ccc(C(F)(F)F)cn2)cc1	melting point	96.7 to 97.5 °C
O=C(Oc1cc(OC(=O)c2cc(O)c(O)c(O)c2)c2ccccc2c1)c1cc(O)c(O)c(O)c1	melting point	163 to 164 °C
Cc1n[nH]c(-c2ccncc2)c1-c1ccccc1	melting point	164 to 165 °C
CC1COc2cnc3cc(Cl)ccc3c2N1 (configuration not stated)	melting point	215 to 217 °C
COc1ccc(S(=O)(=O)c2nccn2C(C)C)cc1	melting point	84 to 86 °C
O=C1NC(=O)C(Cc2ccc(OCCN3c4ccccc4Oc4ccccc43)cc2)S1 (configuration not stated)	melting point	170 to 172 °C
Cc1cc(-c2cc(C(F)(F)F)nn2-c2ccc(S(C)(=O)=O)c(F)c2)ccc1-c1cscn1	melting point	112 to 114 °C
COc1cc(C#N)ccc1OCCCBr	melting point	99 to 101 °C
Nc1c(C(=O)Cc2ccccc2)[nH]c2cc(Cl)ccc12	melting point	204 to 205 °C
Clc1nc(Cl)c2cc(N3CCCCC3)ccc2n1	melting point	101 to 102 °C
COC(=O)c1nc(Br)cc(Br)c1OCc1ccccc1	melting point	75 to 76 °C
CCOC(=O)c1c2ccc(CC(=O)NOCCO)ccc-2c(C(=O)OCC)c1N	melting point	190 to 192 °C
C=CCn1c(=O)c2c(nc(/C=C/c3cc(OC)c(OC)c(OC)c3)n2C)n(CC=C)c1=O	melting point	189 to 191 °C
COC(=O)C1=CON2CCC34C=CC(O)CC3Oc3c(OC)ccc(c34)C12 (configuration not stated)	melting point	151 to 154 °C
CC1(C)OC(=S)Nc2ccc(-c3sccc3C#N)cc21	melting point	194 to 195 °C
Clc1ccc(-c2cncn3ncnc23)cc1	melting point	154 to 155 °C
CCOC(=O)c1cc2c(F)cccc2nc1Cl	melting point	97 °C
Cc1cccnc1N[C@H]1CC[C@H](C2CCCCC2)CC1	melting point	65 to 67 °C
O=Cc1cnc(Sc2nc3ccccc3[nH]2)s1	melting point	188 °C
O=C(c1ccccc1)N1CCN2c3ccccc3Cn3cccc3C2C1 (configuration not stated)	melting point	137 to 139 °C
CC=CCSc1cc(C(=O)O)cc(S(N)(=O)=O)c1-c1ccccc1	melting point	89 to 91 °C
CN(Cc1cc2c(=O)c(C(=O)NCc3ccc(Cl)cc3)cn(C)c2o1)CC(O)c1ccccn1 (configuration not stated)	melting point	130 to 132 °C

* * *

Attribute: melting point
MEASURED ENDPOINT: melting point

MOLECULE	MEAS VALUE
Fc1ccc2c(c1F)C(C#CC1CC1)(C(F)(F)F)NC(=S)N2 (racemic)	241 to 243 °C
N=c1sc2cc(OC(F)(F)F)ccc2n1CCS	110 °C
CC(C)(C)C(NC(=O)Cc1ccc(Cl)cc1)NC(=NC#N)Nc1cccc2ncccc12 (stereo unspecified)	195 to 196 °C
O=C1CCCc2nc3cc(Cl)ccc3c(NCc3ccccc3)c21	141 to 143 °C
O=C1CC2Sc3nc4ccccc4n3C2(c2ccc(Cl)cc2)O1 (stereo unspecified)	115 to 117 °C
COc1ccc2c(c1)OC(C#N)=CO2	92 °C
COc1cc2c(cc1OC)C1=C(C#N)SC(C)C(=O)N1CC2 (stereo unspecified)	170 to 171 °C
CSC1=NS(=O)(=O)c2cscc21	184 to 186 °C
O=C(CO)Nc1nc(CN2CCC(c3c[nH]c4ccccc34)CC2)cs1	185 to 188 °C
CCN(CC)CCN(CCN1CCCCC1)c1ccc(-c2nc3ccccc3[nH]2)cc1	190 to 191 °C
CCN(CC)S(=O)(=O)c1ccc2c(c1)S(=O)(=O)NC(C1CCCCC1)N2 (stereo unspecified)	207 to 209 °C
